Recorded values, source ChEMBL document CHEMBL1152753.

- Species: Homo sapiens
- method-description: Stabilization of human telomeric d[5'G3(T2AG3]-3' assessed as change in melting temperature at 25 uM
Recorded ΔTm, one value per entry.

smiles-repr: O=C(CCN1CCCC1)Nc1ccc2c(NCNCCNCNc3c4ccc(NC(=O)CCN5CCCC5)cc4nc4cc(NC(=O)CCN5CCCC5)ccc34)c3ccc(NC(=O)CCN4CCCC4)cc3nc2c1
ΔTm, °C: 28
--
smiles-repr: O=C(CCN1CCCC1)Nc1ccc2c(NCOCCOCNc3c4ccc(NC(=O)CCN5CCCC5)cc4nc4cc(NC(=O)CCN5CCCC5)ccc34)c3ccc(NC(=O)CCN4CCCC4)cc3nc2c1
ΔTm, °C: 20
--
smiles-repr: CN(C)c1ccc(Nc2c3ccc(NC(=O)CCN4CCCC4)cc3nc3cc(NC(=O)CCN4CCCC4)ccc23)cc1
ΔTm, °C: 18
--
smiles-repr: O=C(CCN1CCCC1)Nc1ccc2c(NCCCCCCNc3c4ccc(NC(=O)CCN5CCCC5)cc4nc4cc(NC(=O)CCN5CCCC5)ccc34)c3ccc(NC(=O)CCN4CCCC4)cc3nc2c1
ΔTm, °C: 23

###

- method-description: Inhibition of non G-quadruplex [TTAGAG]4 DNA templet extension assessed as ligand-induced polymerase stop products by Taq DNA polymerase stop assay
pEC50: −log10 of the molar value.

smiles-repr: O=C(CCN1CCCC1)Nc1ccc2c(NCCCCCCNc3c4ccc(NC(=O)CCN5CCCC5)cc4nc4cc(NC(=O)CCN5CCCC5)ccc34)c3ccc(NC(=O)CCN4CCCC4)cc3nc2c1
pEC50: 5.35
//
smiles-repr: O=C(CCN1CCCC1)Nc1ccc2c(NCNCCNCNc3c4ccc(NC(=O)CCN5CCCC5)cc4nc4cc(NC(=O)CCN5CCCC5)ccc34)c3ccc(NC(=O)CCN4CCCC4)cc3nc2c1
pEC50: 6.44
//
smiles-repr: O=C(CCN1CCCC1)Nc1ccc2c(NCOCCOCNc3c4ccc(NC(=O)CCN5CCCC5)cc4nc4cc(NC(=O)CCN5CCCC5)ccc34)c3ccc(NC(=O)CCN4CCCC4)cc3nc2c1
pEC50: 5.41
//
smiles-repr: CN(C)c1ccc(Nc2c3ccc(NC(=O)CCN4CCCC4)cc3nc3cc(NC(=O)CCN4CCCC4)ccc23)cc1
pEC50: 4.72

###

- method-description: Inhibition of human G-quadruplex [TTAGGG]4 DNA templet extension assessed as increase in ligand-induced polymerase stop products by Taq DNA polymerase stop assay
pEC50: −log10 of the molar value.
Recorded pEC50, one value per entry.

smiles-repr: O=C(CCN1CCCC1)Nc1ccc2c(NCNCCNCNc3c4ccc(NC(=O)CCN5CCCC5)cc4nc4cc(NC(=O)CCN5CCCC5)ccc34)c3ccc(NC(=O)CCN4CCCC4)cc3nc2c1
pEC50: 7.15

smiles-repr: O=C(CCN1CCCC1)Nc1ccc2c(NCCCCCCNc3c4ccc(NC(=O)CCN5CCCC5)cc4nc4cc(NC(=O)CCN5CCCC5)ccc34)c3ccc(NC(=O)CCN4CCCC4)cc3nc2c1
pEC50: 6.07

smiles-repr: CN(C)c1ccc(Nc2c3ccc(NC(=O)CCN4CCCC4)cc3nc3cc(NC(=O)CCN4CCCC4)ccc23)cc1
pEC50: 5.74

smiles-repr: O=C(CCN1CCCC1)Nc1ccc2c(NCOCCOCNc3c4ccc(NC(=O)CCN5CCCC5)cc4nc4cc(NC(=O)CCN5CCCC5)ccc34)c3ccc(NC(=O)CCN4CCCC4)cc3nc2c1
pEC50: 6.70

###

Recorded pIC50, one value per entry.
Target sequence: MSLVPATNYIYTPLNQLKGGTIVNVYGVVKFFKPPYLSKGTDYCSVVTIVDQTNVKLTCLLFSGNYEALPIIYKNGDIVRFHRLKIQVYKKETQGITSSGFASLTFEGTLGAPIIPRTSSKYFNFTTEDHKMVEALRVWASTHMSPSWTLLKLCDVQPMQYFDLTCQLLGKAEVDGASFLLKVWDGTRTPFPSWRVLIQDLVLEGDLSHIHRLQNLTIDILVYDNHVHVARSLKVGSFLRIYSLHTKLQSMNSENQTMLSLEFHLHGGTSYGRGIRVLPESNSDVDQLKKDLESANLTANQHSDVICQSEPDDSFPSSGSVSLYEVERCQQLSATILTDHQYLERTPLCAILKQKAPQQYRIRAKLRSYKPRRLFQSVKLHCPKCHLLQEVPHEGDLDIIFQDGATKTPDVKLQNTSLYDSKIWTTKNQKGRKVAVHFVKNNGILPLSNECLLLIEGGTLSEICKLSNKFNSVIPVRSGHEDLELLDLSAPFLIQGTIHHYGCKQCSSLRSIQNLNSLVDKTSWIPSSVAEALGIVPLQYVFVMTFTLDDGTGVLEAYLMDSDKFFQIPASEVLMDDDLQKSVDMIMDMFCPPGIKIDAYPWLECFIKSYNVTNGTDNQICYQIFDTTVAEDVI
pIC50: −log10 of the molar value.
endpoint: pIC50

smiles-repr: O=C(CCN1CCCC1)Nc1ccc2c(NCCCCCCNc3c4ccc(NC(=O)CCN5CCCC5)cc4nc4cc(NC(=O)CCN5CCCC5)ccc34)c3ccc(NC(=O)CCN4CCCC4)cc3nc2c1
endpoint: pIC50
value-reported: 4.77

smiles-repr: CN(C)c1ccc(Nc2c3ccc(NC(=O)CCN4CCCC4)cc3nc3cc(NC(=O)CCN4CCCC4)ccc23)cc1
endpoint: pIC50
value-reported: 4.20

###

- target-desc: Telomerase reverse transcriptase (Homo sapiens, UniProt O14746)
- Sequence (O14746 whole entry): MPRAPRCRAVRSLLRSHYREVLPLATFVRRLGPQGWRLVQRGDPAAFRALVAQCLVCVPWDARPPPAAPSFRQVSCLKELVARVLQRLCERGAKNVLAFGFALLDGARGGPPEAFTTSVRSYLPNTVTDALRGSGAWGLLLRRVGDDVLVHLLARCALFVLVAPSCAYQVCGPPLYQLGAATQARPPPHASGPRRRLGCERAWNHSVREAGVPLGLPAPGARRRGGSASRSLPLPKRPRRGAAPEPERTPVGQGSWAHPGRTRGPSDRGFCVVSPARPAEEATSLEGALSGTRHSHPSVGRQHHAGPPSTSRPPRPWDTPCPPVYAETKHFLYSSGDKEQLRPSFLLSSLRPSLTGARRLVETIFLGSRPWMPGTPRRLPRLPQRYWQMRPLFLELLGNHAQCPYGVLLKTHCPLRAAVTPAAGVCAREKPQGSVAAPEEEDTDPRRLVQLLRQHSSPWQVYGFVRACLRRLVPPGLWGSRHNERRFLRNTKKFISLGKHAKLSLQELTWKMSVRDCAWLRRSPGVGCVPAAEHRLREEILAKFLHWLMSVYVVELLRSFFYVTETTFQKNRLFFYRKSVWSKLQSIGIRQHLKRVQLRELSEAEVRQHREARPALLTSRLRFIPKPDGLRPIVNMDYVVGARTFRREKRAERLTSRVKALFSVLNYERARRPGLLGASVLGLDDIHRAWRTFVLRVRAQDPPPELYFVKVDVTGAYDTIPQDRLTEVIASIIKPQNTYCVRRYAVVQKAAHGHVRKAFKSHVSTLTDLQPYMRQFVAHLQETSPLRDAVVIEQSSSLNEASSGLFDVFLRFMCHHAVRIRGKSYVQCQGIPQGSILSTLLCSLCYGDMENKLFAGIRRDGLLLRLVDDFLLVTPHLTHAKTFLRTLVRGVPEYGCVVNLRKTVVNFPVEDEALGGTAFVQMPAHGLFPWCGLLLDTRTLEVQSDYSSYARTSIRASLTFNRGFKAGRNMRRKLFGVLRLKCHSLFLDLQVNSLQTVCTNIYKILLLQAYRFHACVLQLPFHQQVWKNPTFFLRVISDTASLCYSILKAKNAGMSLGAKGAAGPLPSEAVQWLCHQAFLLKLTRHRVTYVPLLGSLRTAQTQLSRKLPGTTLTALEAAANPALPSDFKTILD
Recorded IC50, one value per entry.

smiles-repr: O=C(CCN1CCCC1)Nc1ccc2c(NCNCCNCNc3c4ccc(NC(=O)CCN5CCCC5)cc4nc4cc(NC(=O)CCN5CCCC5)ccc34)c3ccc(NC(=O)CCN4CCCC4)cc3nc2c1
IC50 / µM: 7.5
//
smiles-repr: O=C(CCN1CCCC1)Nc1ccc2c(NCOCCOCNc3c4ccc(NC(=O)CCN5CCCC5)cc4nc4cc(NC(=O)CCN5CCCC5)ccc34)c3ccc(NC(=O)CCN4CCCC4)cc3nc2c1
IC50 / µM: 9
